Target: serotonin reuptake (Rattus norvegicus, UniProt P31652)
Construct: synaptosomal serotonin reuptake (Sherman et al., Life Sci. 23 (1978), 1863-1870)
Sequence (P31652 whole entry): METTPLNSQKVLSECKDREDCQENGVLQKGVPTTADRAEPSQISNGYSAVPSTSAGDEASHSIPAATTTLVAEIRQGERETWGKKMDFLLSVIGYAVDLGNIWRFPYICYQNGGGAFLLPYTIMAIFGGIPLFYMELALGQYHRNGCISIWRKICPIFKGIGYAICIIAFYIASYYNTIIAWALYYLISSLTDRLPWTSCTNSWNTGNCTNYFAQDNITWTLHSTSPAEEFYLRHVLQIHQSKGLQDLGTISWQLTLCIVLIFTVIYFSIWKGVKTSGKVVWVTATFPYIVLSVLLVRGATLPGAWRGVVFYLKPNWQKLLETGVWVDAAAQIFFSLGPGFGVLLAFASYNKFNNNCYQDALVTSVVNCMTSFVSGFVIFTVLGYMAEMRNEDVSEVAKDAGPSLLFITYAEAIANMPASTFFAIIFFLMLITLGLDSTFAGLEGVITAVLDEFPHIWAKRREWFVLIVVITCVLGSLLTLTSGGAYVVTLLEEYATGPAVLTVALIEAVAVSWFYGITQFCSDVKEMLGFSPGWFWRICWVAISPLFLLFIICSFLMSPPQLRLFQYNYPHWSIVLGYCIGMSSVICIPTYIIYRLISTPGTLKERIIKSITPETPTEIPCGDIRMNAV
Assay: serotonin reuptake inhibition (SSRI)
MEASURED PROPERTY: IC50 (nM)
Answers are plain numbers, in nM.

N#Cc1cc2c(CCCCN3CCN(c4ccc5oc(C(N)=O)cc5c4)CC3)c[nH]c2cc1O; 2.7

Next item in the queue.
Problem: Please report the recorded IC50 for N#Cc1ccc2c(c1)C(CCCCN1CCN(c3ccc4oc(C(N)=O)cc4c3)CC1)C(=O)N2 (centres unmarked) .
Result: 2.9
